molecular target: Interstitial collagenase (Homo sapiens); test: Inhibition of Matrix Metalloprotease-1
Sequence (P03956 whole entry): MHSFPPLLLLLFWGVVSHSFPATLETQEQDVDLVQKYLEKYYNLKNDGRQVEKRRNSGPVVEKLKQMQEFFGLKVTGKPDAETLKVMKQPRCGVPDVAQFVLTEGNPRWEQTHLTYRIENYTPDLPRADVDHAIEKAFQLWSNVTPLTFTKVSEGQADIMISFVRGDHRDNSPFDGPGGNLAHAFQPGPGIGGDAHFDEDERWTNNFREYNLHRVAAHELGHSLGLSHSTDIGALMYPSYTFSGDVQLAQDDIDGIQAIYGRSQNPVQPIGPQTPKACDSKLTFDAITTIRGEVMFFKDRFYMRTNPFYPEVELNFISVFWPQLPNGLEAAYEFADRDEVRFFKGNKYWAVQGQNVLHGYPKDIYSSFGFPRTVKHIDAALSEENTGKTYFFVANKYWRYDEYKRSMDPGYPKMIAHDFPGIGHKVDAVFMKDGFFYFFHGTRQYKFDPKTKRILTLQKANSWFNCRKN
Reported pIC50 values for the following compounds.
Remember, pIC50 is on a log scale: it is -log10 of the molar concentration.

O=C1N[C@@H](CS)C(=O)N(Cc2ccc3ccccc3n2)[C@H]1CC1CCCCC1 ... 7.46

### Prompt Find the measured pIC50 of O=C1N[C@@H](CS)C(=O)N(CC2CCCCC2)[C@H]1CC1CCCCC1 and report it.
### Response 7.33

### Prompt Find the measured pIC50 of COc1ccc(CN2C(=O)[C@H](CS)NC(=O)[C@@H]2CC2CCCCC2)cc1 and report it.
### Response 7.52

### Prompt Find the measured pIC50 of CCCCN1C(=O)[C@H](CS)NC(=O)[C@@H]1Cc1ccccc1 and report it.
### Response 6.50

### Prompt Find the measured pIC50 of CCCC[C@H]1C(=O)N[C@@H](CS)C(=O)N1CC1CCCCC1 and report it.
### Response 6.66

### Prompt Find the measured pIC50 of COc1ccc(CN2C(=O)[C@H](CS)NC(=O)[C@@H]2Cc2ccccc2)cc1 and report it.
### Response 7.19
